Hello, the source for this data is patent US20190367592A1, in case you need it.

Assay Target: T1, recombinant human Tau monomer, 2N4R isoform (amino acids 2-441) (human, UniProt P10636-8 2-441)
T1 construct: range 2-441; N-terminal His-tag removed with TEV protease; also called monomeric Tau
T1 sequence (P10636 other isoform, or with tags, fused parts or gaps limits assumed): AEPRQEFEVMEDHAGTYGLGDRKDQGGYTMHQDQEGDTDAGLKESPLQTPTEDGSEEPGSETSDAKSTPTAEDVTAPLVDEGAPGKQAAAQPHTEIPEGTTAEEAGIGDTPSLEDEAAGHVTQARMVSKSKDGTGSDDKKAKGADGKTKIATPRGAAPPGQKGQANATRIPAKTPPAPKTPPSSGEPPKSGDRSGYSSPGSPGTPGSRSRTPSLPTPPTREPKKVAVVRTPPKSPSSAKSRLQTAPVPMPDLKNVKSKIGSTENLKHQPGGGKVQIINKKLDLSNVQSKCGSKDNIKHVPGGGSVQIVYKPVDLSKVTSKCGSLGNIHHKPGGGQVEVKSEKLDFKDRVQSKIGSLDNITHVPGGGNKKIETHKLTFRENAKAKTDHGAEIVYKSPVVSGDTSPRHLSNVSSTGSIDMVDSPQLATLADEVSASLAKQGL
Test Details: SPR, captured IgG, Tau monomer analyte, 1:1 model; fit-quality column: -
What pKd was measured for each of the following?
The quantity pKd is defined as the negative base-10 logarithm of the molar concentration.

The value of pKd measured for the binder hu37D3-H9.v30.7 (antibody, V domains shown) VH: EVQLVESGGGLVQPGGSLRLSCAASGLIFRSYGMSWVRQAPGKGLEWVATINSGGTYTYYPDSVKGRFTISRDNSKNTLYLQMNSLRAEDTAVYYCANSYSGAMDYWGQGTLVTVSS VL: DDVLTQTPLSLPVTPGQPASISCRSSQSIVHSFGNTYFEWYLQKPGQSPQLLIYKVSNRFSGVPDRFSGSGSGTDFTLKISRVEAEDVGVYYCFQGSLVPWTFGQGTKVEIK turned out to be 7.46

The value of pKd measured for the binder hu37D3-H9.v5.4 (antibody, V domains shown) VH: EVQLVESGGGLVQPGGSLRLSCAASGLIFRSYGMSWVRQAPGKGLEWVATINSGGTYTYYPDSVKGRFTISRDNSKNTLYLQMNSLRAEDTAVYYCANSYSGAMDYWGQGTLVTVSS VL: EDVLTQTPLSLPVTPGQPASISCRSSQSIVHSQGNTYFEWYLQKPGQSPQLLIYKVSNRFSGVPDRFSGSGSGTDFTLKISRVEAEDVGVYYCFQGSLVPWTFGQGTKVEIK turned out to be 7.44

The value of pKd measured for the binder hu37D3.v28.E3 (antibody, V domains shown) VH: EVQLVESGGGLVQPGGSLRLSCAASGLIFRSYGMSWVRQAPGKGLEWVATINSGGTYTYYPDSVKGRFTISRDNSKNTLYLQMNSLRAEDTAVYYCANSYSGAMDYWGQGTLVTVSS VL: DDVLTQTPLSLPVTPGQPASISCRSSQSIVDSDGNTYFEWYLQKPGQSPQLLIYKVSNRFSGVPDRFSGSGSGTDFTLKISRVEAEDVGVYYCFQGSLVPWTFGQGTKVEIK turned out to be 8.96
